STUDY TARGET: CDK7/cyclinH/MAT1 trimeric complex (Homo sapiens)
Sequence (P50613 whole entry): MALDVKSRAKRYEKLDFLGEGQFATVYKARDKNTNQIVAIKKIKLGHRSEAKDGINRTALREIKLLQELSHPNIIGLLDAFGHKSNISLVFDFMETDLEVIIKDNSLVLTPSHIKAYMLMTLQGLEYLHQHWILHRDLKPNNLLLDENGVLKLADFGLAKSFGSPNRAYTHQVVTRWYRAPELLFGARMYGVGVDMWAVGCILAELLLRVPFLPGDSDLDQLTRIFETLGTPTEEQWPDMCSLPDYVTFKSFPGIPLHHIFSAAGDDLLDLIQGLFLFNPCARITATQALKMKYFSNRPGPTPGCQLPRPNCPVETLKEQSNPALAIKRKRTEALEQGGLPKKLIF
Sequence (P51946 whole entry partner): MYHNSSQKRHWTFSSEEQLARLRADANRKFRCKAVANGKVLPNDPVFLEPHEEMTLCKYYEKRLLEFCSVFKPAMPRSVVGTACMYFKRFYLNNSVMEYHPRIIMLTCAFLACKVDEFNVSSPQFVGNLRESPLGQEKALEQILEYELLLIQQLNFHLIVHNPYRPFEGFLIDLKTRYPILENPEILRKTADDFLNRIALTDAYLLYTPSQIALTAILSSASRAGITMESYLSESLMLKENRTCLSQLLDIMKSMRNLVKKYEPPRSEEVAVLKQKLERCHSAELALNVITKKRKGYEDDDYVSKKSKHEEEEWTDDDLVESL
Sequence (P51948 whole entry partner): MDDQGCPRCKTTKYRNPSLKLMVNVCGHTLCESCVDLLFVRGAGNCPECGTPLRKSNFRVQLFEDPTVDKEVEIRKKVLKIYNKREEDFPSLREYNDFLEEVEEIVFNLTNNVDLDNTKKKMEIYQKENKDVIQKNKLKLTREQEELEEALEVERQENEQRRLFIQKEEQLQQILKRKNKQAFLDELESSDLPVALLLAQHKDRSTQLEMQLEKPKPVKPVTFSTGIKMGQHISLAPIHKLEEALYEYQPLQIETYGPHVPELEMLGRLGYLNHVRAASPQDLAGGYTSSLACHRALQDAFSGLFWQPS
EXPERIMENT DESCRIPTION: In vitro CDK7 assay, potency of irreversible covalent inhibitors (kinact/KI), coupled PK/LDH ADP readout at 340 nm
TEST CONDITIONS: read-out: CDK7 (20 nM enz.) (kinact/KI, M^−1*s^−1), 20 nM enzyme
ATTRIBUTE MEASURED: kinact/KI (M⁻¹ s⁻¹)

INSERT INTO measurements (compound, observed_result) VALUES
  ('C=CC(=O)N1CC(c2ncc(-c3cc(C)c4c(c3)Nc3nccc(C5CCOCC5)c3CO4)cn2)C1', 543),
  ('CC#CC(=O)N1CCN(C2CCN(c3cc4c(c(C)n3)OCc3c(N5CCOCC5)ccnc3N4)CC2)CC1', 807),
  ('C=CC(=O)N1CC[C@H](N2CC(c3cc4c(c(C)n3)OCc3c(N5CCOCC5)ccnc3N4)C2)[C@H](F)C1', 185),
  ('C=CC(=O)N1CC[C@@H](N2CC(c3cc4c(c(C(F)(F)F)c3)OCc3c(N5CCOCC5)ccnc3N4)C2)C1 (single isomer, unassigned)', 1490),
  ('CC#CC(=O)N1CC(N2CCC(c3cc4c(c(C)n3)OCc3c(N5CCOCC5)ccnc3N4)N(C)CC2)C1 (stereo not shown)', 147);

(P) CC#CC(=O)N1CC(N2CCC(c3cc4c(c(C)n3)O[C@H](C)c3c(N5CCOCC5)ccnc3N4)CC2)C1 (single isomer, unassigned)
(Q) CC#CC(=O)N1CC(N2CC(c3cc4c(c(C5CC5)n3)OCc3c(N5CCOCC5)ccnc3N4)C2)C1
Exercise: compare P and Q ; which one has the greater kinact/KI? Which one? Tell me its label.
Q
(Q: 1400 M⁻¹ s⁻¹, P: 296 M⁻¹ s⁻¹)
